Please find below IC50 measurements for human ACC2 (Homo sapiens (Human)), combined from several publications.
Quantity name: IC50 (nM)

CCOc1ccc(C#Cc2ccc(C(C)NC(=O)NCC(=O)O)cc2)cc1 (stereo not shown) ... 9600
CCNC(=O)C(C)c1ccc(O[C@@H]2CCN(c3cccc(C(F)(F)F)n3)C2)cc1 (stereo partly shown) ... 315
CC(=O)N[C@@H](C)c1ccc(C#Cc2cnc(OCc3ccoc3)nc2)cc1 ... 790

I = CC(=O)NC(C)Cc1ccc(C#Cc2ccnc(N(C)CC3CC3)n2)cc1 (stereo not shown)
II = Cc1nc(N)sc1C(=O)N[C@@H](C)c1ccc(O[C@@H]2CCN(c3ccc(OCC4CC4)cc3)C2)cc1
III = CCNC(=O)c1ccc(C#Cc2ccc(CC(C)NC(C)=O)cc2)cc1 (stereo not shown)
Rank entries according to their IC50, from the largest number down. Submit the labels in the order that the ranking request calls for.
III, II, I

* * *

Please find below IC50 measurements for UniProt O00763, combined from several publications.
Quantity name: IC50 (nM)

C[C@H](NC(=O)C(F)(F)F)c1ccc(OC2CCN(c3ccnc(OCC4CC4)c3)C2)cc1 (stereo partly shown) ... 54

1 = CC(=O)NC(C)c1ccc(CN2CCc3c(ccc(OCC4CC4)c3Cl)C2)cc1 (stereo not shown)
2 = CCCOc1ccc(C#Cc2ccc(CC(C)NC(C)=O)cc2)c(C#N)c1 (stereo not shown)
Choose between 1 and 2 : whose measured IC50 value is numerically larger? Return value: the label identifying the chosen record.
2

* * *

Please find below pIC50 measurements for human ACC2 (Homo sapiens (Human)), combined from several publications.
pIC50: −log10 of the molar value.
Quantity name: pIC50

COc1ccccc1[C@H](Cn1c(=O)n([C@H]2C[C@@H](CC(=O)O)C2)c(=O)c2c(C)c(-c3ncco3)sc21)OC1CCOCC1 ... 8.10
Cc1cc(OC2CC2)ccc1N1CC[C@@H](Oc2ccc([C@H](C)NC(=O)CO)cc2)C1 ... 6.13
CC(=O)NC(C)Cc1ccc(C#Cc2cnc(NCCF)nc2)cc1 (centres unmarked) ... 5.80

a = COC(=O)N[C@@H](C)c1ccc(O[C@@H]2CCN(c3ccc(OC[C@H]4CC4(F)F)cn3)C2)cc1
b = COC(=O)NC(C)Cc1ccc(C#Cc2cnc(NC3CCC3)nc2)cc1 (centres unmarked)
Choose between a and b : whose measured pIC50 value is numerically larger? Return value: the label identifying the chosen record.
a

P = CC(=O)NC(C)c1ccc(C#Cc2cccc(OCc3ccccc3)c2)cc1 (centres unmarked)
Q = C[C@H](NC(=O)CO)c1ccc(OC2CCN(c3ccnc(OCC(F)F)c3)C2)cc1 (some centres unmarked)
R = C[C@H](NC(=O)N(C)C)c1ccc(OC2CCN(c3ccnc(OCC4CC4(F)F)c3F)C2)cc1 (some centres unmarked)
S = CCNC(=O)C(C)c1ccc(C#Cc2ccc3[nH]nnc3c2)cc1 (centres unmarked)
Rank entries according to their pIC50, from the largest number down. Submit the labels in the order that the ranking request calls for.
R, P, Q, S
(R: 7.31, P: 6.30, Q: 6.06, S: 5.11)

* * *

Please find below IC50 measurements for human ACC2 (Homo sapiens (Human), UniProt O00763), combined from several publications.
Quantity name: IC50 (nM)

Before answering, review these 8 worked examples.
COc1ccccc1[C@H](Cn1c(=O)n(C(C)(C)C(=O)O)c(=O)c2c(C)c(-c3ncco3)sc21)OC1C[C@@H]2COC[C@H]2C1 ... 3.82
CC(C#N)C(=O)N[C@@H](C)c1ccc(OC2CCN(c3ccnc(OCC4CC4)c3)C2)cc1 (stereo partly shown) ... 210
CC(=O)N[C@@H](C)c1ccc(O[C@@H]2CCN(c3ccnc(C(=O)Nc4ccc(Cl)cc4)c3)C2)cc1 ... 1100
CC(=O)NC(C)c1ccc(CN2CCc3cc(Br)ccc3C2)cc1 (stereo not shown) ... 265
COCC(=O)Nc1nc(C)c(C(=O)N[C@@H](C)c2ccc(OC3CCN(c4ccc(OCC5CC5)cc4)C3)cc2)s1 (stereo partly shown) ... 20
CCOc1ccc(C#Cc2ccc(CC(C)NC(=O)C(O)C(C)C)cc2)cc1 (stereo not shown) ... 1700
C[C@H](NC(=O)CO)c1ccc(CN2CC(=O)c3cc(OCC4CC4(F)F)ccc3C2)cc1 (stereo partly shown) ... 565
CCOc1ccc(C#Cc2ccc(C(C)C(=O)Nc3cc(C)[nH]n3)cc2)cc1 (stereo not shown) ... 25500

A = CC(=O)NC(C)Cc1ccc(C#Cc2ccc(C(=O)NCc3ccncc3)cc2)cc1 (stereo not shown)
B = C[C@H](NC(=O)Nc1ccon1)c1ccc(OC2CCN(c3ccc(OCC4CC4)cc3)C2)cc1 (stereo partly shown)
Dear colleague, could you let me know whether A or B has the lower recorded IC50? Thanks. Return value: the label identifying the chosen record.
B
(B: 56 nM, A: 16600 nM)

a = Cc1ccc(-c2ccc(Cl)cc2)cc1C1=C(O)CN(C2CCCCC2)C1=O
b = CCNC(=O)C(C)c1ccc(N2CCC(c3cccc(OCC4CC4)c3)CC2)cc1 (stereo not shown)
Dear colleague, could you let me know whether a or b has the lower recorded IC50? Thanks. Return value: the label identifying the chosen record.
a
(a: 695 nM, b: 2310 nM)

P = Cc1nocc1C(=O)N[C@@H](C)c1ccc(OC2CCN(c3cccc(C(F)(F)F)n3)C2)cc1 (stereo partly shown)
Q = CC(=O)NC(C)Cc1ccc(C#Cc2ccc3c(c2)OCC(C)(C)CO3)cc1 (stereo not shown)
Dear colleague, could you let me know whether P or Q has the lower recorded IC50? Thanks. Return value: the label identifying the chosen record.
P

I = COC1CN(c2nccc(N3CC[C@@H](Oc4ccc([C@H](C)NC(C)=O)cc4)C3)c2F)C1
II = CCOc1ccc(C#Cc2ccc(C(C)NC(=O)C3CC3C)cc2)cc1 (stereo not shown)
Choose between I and II : whose measured IC50 value is numerically larger? Return value: the label identifying the chosen record.
II
(II: 15400 nM, I: 155 nM)
